These data points were gathered from ChEMBL document CHEMBL5136985.

# Tested on: Gaeumannomyces graminis
# TEST NAME: Antifungal activity against Gaeumannomyces graminis
# Format: functional, organism-based
Give EC50 for every item shown.

Q: Look up EC50 for this compound: COC(=O)c1cc2c([nH]c3ccccc32)c(C(N)=O)n1
Ans: 0.45 µM

Q: Look up EC50 for this compound: CC(C)c1nc(C(N)=O)cc2c1[nH]c1ccccc12
Ans: 2.85 µM

Q: Look up EC50 for this compound: COC(=O)c1cc2c([nH]c3ccccc32)c(C(=O)OC)n1
Ans: 1.16 µM

Q: Look up EC50 for this compound: NC(=O)c1cc2c([nH]c3ccccc32)c(-c2ccccn2)n1
Ans: 2.85 µM
